Values were extracted from the NIST ThermoML archive (doi:10.1021/je0302304).

Conditions: 308.15 K; 101.32 kPa; Liquid
mass density below 900 kg/m3 gives not met; mass density at or above it gives met.

{"Molecule smiles": "COCCOC", "Qualitative label": "not met"}
{"Molecule smiles": "COCCOCCOC", "Qualitative label": "met"}
{"Molecule smiles": "CCO", "Qualitative label": "not met"}
{"Molecule smiles": "COCCOCCOCCOC", "Qualitative label": "met"}

As a next step, examine the compound that follows.
In: Form field: mass density at least 900 kg/m3? Entry: `COCCOCCOCCOCCOC`
Out: met

###

Test: refractive index (Na D-line) (dimensionless); xn = mol fraction of the nth substance listed
Conditions: 288.15 K; 101.32 kPa; Liquid; Standard Abbe refractometry; x1 = 0.2
Experimental readout: refractive index
Keep it simple and answer with nothing but the number.

{"Compound": "COCCOCCOCCOC [2,5,8,11-tetraoxadodecane] + CCO", "Reported measurement": 1.3915}
{"Compound": "COCCOCCOC [2,5,8-trioxanonane] + CCO", "Reported measurement": 1.3817}
{"Compound": "COCCOC [1,2-dimethoxyethane] + CCO", "Reported measurement": 1.3695}

In: What does the data say about its refractive index? Entry: COCCOCCOCCOCCOC [2,5,8,11,14-pentaoxapentadecane] + CCO
Out: 1.3999

###

Quick list: mass density per entry.
Experiment: xn = mol fraction of the nth substance listed
Conditions: 308.15 K; 101.32 kPa; Liquid; x1 = 0.0045
Express it in kg/m3; write the number only.

{"Compound": "COCCOCCOCCOCCOC [2,5,8,11,14-pentaoxapentadecane] + CCO", "mass density, kg/m3": 780.7}

In: What does the data say about its mass density? Entry: COCCOCCOCCOC [2,5,8,11-tetraoxadodecane] + CCO
Out: 779.5

In: What does the data say about its mass density? Entry: COCCOC [1,2-dimethoxyethane] + CCO
Out: 777.3

In: What does the data say about its mass density? Entry: COCCOCCOC [2,5,8-trioxanonane] + CCO
Out: 778.4

###

Quick list: mass density per entry.
Test: xn = mol fraction of the nth substance listed
Conditions: 308.15 K; 101.32 kPa; Liquid; x1 = 0.0305
± gives the expanded uncertainty stated by the source.
Could you write the number and then its unit?

In: What does the data say about its mass density? Entry: COCCOCCOCCOCCOC [2,5,8,11,14-pentaoxapentadecane] + CCO
Out: 802 ± 0.4 kg/m3

###

Experiment: refractive index (Na D-line) (dimensionless); xn = mol fraction of the nth substance listed
Settings: 308.15 K; 101.32 kPa; Liquid; Standard Abbe refractometry; x1 = 0.0305
Experimental readout: refractive index
Keep it simple and answer with nothing but the number.

In: What does the data say about its refractive index? Entry: COCCOCCOCCOCCOC [2,5,8,11,14-pentaoxapentadecane] + CCO
Out: 1.3634

In: What does the data say about its refractive index? Entry: COCCOC [1,2-dimethoxyethane] + CCO
Out: 1.356

In: What does the data say about its refractive index? Entry: COCCOCCOCCOC [2,5,8,11-tetraoxadodecane] + CCO
Out: 1.3609

In: What does the data say about its refractive index? Entry: COCCOCCOC [2,5,8-trioxanonane] + CCO
Out: 1.3585

###

Conditions: 298.15 K; 101.32 kPa; Liquid
Decision: mass density beneath 900 kg/m3 gives label 1; mass density meeting or exceeding 900 kg/m3 gives label 0.

In: Is the reported mass density for `CCO` strictly below 900 kg/m3?
Out: label 1

In: Is the reported mass density for `COCCOCCOCCOCCOC` strictly below 900 kg/m3?
Out: label 0

In: Is the reported mass density for `COCCOCCOCCOC` strictly below 900 kg/m3?
Out: label 0

In: Is the reported mass density for `COCCOC` strictly below 900 kg/m3?
Out: label 1

In: Is the reported mass density for `COCCOCCOC` strictly below 900 kg/m3?
Out: label 0
